- experimentalSystem: Gamma-aminobutyric acid receptor subunit rho-2 (Homo sapiens)
- Sequence (P28476 whole entry): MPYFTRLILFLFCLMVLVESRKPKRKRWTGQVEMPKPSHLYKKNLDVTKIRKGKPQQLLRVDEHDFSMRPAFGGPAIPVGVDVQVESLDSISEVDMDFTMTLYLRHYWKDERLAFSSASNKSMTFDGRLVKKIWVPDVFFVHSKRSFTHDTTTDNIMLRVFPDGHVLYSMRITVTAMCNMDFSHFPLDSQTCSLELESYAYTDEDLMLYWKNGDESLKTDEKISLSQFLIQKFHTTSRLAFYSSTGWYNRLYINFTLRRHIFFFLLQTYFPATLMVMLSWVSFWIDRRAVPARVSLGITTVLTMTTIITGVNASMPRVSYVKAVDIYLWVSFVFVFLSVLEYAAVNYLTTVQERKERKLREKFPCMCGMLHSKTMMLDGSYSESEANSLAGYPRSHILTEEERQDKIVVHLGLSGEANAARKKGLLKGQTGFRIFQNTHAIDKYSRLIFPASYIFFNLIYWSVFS
- testMethodNotes: Antagonist activity at human recombinant GABAc rho-2 receptor expressed in Xenopus laevis oocytes assessed as inhibition of GABA-induced current by two electrode voltage clamp technique
pIC50: −log10 of the molar value.

>  <compound>
NCC1CCP(=O)(O)C1 (stereo not drawn)

>  <pIC50>
4.24

$$$$
>  <compound>
N=C(N)NC1CCP(=O)(O)C1 (stereo not drawn)

>  <pIC50>
4.29

$$$$
>  <compound>
CP(=O)(O)C1=CCNCC1

>  <pIC50>
4.66

$$$$

====

- experimentalSystem: GABA-B receptor (Homo sapiens, UniProt O75899+Q9UBS5)
- Sequence (Q9UBS5 whole entry): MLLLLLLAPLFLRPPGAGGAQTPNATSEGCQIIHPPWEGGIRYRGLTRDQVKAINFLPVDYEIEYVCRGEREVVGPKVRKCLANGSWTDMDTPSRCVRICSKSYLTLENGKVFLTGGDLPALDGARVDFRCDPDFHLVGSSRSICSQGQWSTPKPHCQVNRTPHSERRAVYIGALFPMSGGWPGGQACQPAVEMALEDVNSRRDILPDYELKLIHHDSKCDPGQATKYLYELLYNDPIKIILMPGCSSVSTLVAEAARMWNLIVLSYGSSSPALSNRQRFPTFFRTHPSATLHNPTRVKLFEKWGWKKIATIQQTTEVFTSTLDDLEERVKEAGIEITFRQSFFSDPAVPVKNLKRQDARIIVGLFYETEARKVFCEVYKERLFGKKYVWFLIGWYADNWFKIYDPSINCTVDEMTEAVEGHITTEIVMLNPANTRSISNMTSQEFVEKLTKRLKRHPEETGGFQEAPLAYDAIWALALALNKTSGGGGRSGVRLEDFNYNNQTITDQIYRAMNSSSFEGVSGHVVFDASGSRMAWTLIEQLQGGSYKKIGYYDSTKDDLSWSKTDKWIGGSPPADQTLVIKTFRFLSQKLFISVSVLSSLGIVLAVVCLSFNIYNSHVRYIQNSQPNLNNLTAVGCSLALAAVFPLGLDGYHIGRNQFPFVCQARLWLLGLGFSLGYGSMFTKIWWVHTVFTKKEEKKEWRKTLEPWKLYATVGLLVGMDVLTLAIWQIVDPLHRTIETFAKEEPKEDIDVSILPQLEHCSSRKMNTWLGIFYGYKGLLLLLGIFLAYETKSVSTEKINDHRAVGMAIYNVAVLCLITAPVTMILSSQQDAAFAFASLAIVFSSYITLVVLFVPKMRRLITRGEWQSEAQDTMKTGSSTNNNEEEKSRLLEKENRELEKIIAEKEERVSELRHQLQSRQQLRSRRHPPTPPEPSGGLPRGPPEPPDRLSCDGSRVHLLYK
- Sequence (O75899 whole entry): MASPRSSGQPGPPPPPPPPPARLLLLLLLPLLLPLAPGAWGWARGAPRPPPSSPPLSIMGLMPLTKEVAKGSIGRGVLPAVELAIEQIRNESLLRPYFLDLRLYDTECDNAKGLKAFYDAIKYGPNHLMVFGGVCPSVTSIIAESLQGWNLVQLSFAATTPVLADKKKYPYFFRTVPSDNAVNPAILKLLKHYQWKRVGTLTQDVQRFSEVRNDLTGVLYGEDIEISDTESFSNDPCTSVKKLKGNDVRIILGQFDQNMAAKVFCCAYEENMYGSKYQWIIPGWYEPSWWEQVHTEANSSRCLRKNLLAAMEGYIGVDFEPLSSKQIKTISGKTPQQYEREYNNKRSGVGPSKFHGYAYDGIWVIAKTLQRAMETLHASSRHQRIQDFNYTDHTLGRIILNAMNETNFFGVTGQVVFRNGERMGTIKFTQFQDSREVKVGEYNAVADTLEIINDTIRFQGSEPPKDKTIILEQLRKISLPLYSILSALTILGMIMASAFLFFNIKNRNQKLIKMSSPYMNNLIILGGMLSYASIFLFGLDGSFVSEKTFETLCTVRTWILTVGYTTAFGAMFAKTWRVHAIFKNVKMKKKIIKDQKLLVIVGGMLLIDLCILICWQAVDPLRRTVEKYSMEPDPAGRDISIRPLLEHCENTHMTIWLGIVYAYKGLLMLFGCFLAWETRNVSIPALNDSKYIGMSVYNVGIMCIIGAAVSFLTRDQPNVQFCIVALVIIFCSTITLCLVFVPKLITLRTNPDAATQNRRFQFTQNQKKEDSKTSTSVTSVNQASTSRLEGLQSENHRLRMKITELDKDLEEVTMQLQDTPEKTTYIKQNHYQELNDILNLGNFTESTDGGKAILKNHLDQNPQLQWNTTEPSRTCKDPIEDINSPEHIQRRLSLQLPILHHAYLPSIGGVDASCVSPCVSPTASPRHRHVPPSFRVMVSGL
- testMethodNotes: Antagonist activity at human recombinant GABAb 1b/2 receptor expressed in Xenopus laevis oocytes co-expressing GIRK1/4 assessed as inhibition of GABA-induced current by two electrode voltage clamp technique
pEC50: −log10 of the molar value.

>  <smi>
CP(=O)(O)C1=CCNCC1

>  <pEC50>
3.30

$$$$
